- procedureText: MTS cell viability assay, HDF
- Assay type: cell-based
- experimentalConditions: human, HDF dermal fibroblasts, TP4 20.0 μg/mL, 6 h, mean±SD, read-out: Cellular toxicity (cell viability), MTS assay
Where no end group is shown, it is not given here.

[
  {
    "polymerSequence": "FIHHIIGGLFSAGKAIHRLIRRRRR [TP4, tilapia piscidin 4]",
    "viability at 6 h, 20 μg/mL [%]": 81
  }
]

====

- procedureText: MTS cell viability assay, M10
- Assay type: cell-based
- experimentalConditions: human, M10 normal human mammary epithelial cells; M10, TP4 20.0 μg/mL, 6 h, mean±SD; read-out: Cellular toxicity (cell viability), MTS assay
- Description: Cell-lines used in this study were purchased from the Bioresource Collection and Research Center (BCRC) in and the cells were cultured by the standard cell culture procedures and conditions provided by the BCRC. […] For the transfection assays, cells were transfected with 0.1-0.4 μg FOSB/FOSAB expression plasmid (Origene Technology Inc.) and cell viability was determined after 72 h. […]
Where no end group is shown, it is not given here.

[
  {
    "polymerSequence": "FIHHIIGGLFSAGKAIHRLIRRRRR [TP4, tilapia piscidin 4]",
    "quantityUnit": "%",
    "viability at 6 h, 20 μg/mL": 60.3
  }
]

====

- procedureText: MTS cell viability assay, HDF
- Format: cell-based
- experimentalConditions: human, HDF dermal fibroblasts, TP4 2.5 μg/mL, 24 h, mean±SD, read-out: Cellular toxicity (cell viability), MTS assay
Where no end group is shown, it is not given here.

[
  {
    "polymerSequence": "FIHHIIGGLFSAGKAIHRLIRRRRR [TP4, tilapia piscidin 4]",
    "viability at 24 h, 2.5 μg/mL": "97.2%"
  }
]

====

- procedureText: MTS cell viability assay, M10
- Type: cell-based
- experimentalConditions: human, M10 normal human mammary epithelial cells; M10, TP4 5.0 μg/mL, 3 h, mean±SD; read-out: Cellular toxicity (cell viability), MTS assay
Where no end group is shown, it is not given here.

[
  {
    "polymerSequence": "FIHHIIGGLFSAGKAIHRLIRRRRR [TP4, tilapia piscidin 4]",
    "quantityUnit": "%",
    "viability at 3 h, 5 μg/mL": 97.1
  }
]

====

- procedureText: MTS cell viability assay, HDF
- Type: cell-based
- experimentalConditions: human, HDF dermal fibroblasts, TP4 5.0 μg/mL, 6 h, mean±SD, read-out: Cellular toxicity (cell viability), MTS assay
Where no end group is shown, it is not given here.

[
  {
    "polymerSequence": "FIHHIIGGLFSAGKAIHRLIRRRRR [TP4, tilapia piscidin 4]",
    "quantityUnit": "%",
    "viability at 6 h, 5 μg/mL": 96.8
  }
]

====

- procedureText: MTS cell viability assay, HDF
- Assay type: cell-based
- experimentalConditions: human, HDF dermal fibroblasts, TP4 20.0 μg/mL, 3 h, mean±SD, read-out: Cellular toxicity (cell viability), MTS assay
- Method: Cell-lines used in this study were purchased from the Bioresource Collection and Research Center (BCRC) in and the cells were cultured by the standard cell culture procedures and conditions provided by the BCRC. […] For the transfection assays, cells were transfected with 0.1-0.4 μg FOSB/FOSAB expression plasmid (Origene Technology Inc.) and cell viability was determined after 72 h. […]
Where no end group is shown, it is not given here.

[
  {
    "polymerSequence": "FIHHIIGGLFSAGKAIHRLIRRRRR [TP4, tilapia piscidin 4]",
    "viability at 3 h, 20 μg/mL (%)": 98.6
  }
]
